Tested on: giant foxtail (Setaria faberii)
ASSAY PROTOCOL: Test B preemergence
Format: in vivo
MEASUREMENT PARAMETERS: Preemergence, Rate 500 g/ha; scale 0 to 100, 0 no effect, 100 complete control
QUANTITY KIND: Plant response rating, Foxtail, Giant
Keep the answer to the number alone.

[[record]]
compound = "Cc1ccc(N2CCC(n3ccc(C(C)(C)C)n3)C2=O)cc1Cl (centres unmarked)"
assay_result = 60

[[record]]
compound = "Cc1ccn(C2CCN(c3cccc(C(F)(F)F)c3)C2=O)n1 (centres unmarked)"
assay_result = 0

[[record]]
compound = "O=C1C(n2cc(Cl)c(C3CC3)n2)CCN1c1cccc(C(F)(F)F)c1 (centres unmarked)"
assay_result = 0

[[record]]
compound = "COc1cc(N2CCC(n3ccc(C(C)C)n3)C2=O)ccc1Br (centres unmarked)"
assay_result = 100


The compound listed as CC(C)(C)c1ccn(C2CCN(c3cccc(OC(=O)C(F)(F)F)c3)C2=O)n1 (centres unmarked) has a reported Plant response rating, Foxtail, Giant of 0
